All values here come from ChEMBL document CHEMBL4513216.

test system: Plasmodium berghei; test: Screen against P. berghei liver stage (PbLuc), transformed with Luciferase, at 10uM; format: functional, HepG2; details: tested at 10 uM
About 8,600 (12%) of roughly 69,000 compounds showed an effect of 50% or more. The sample holds strong results, similar compounds and a random draw of the others, so the mix is not that of the screen.
Below is a list of entries, each paired with its recorded INHIBITION value.
Please state the figure in %; there is no need to write the unit.

Here's what some known entries look like.
compound="CN(C(=O)c1ccc[nH]1)C1CC(=O)N(Cc2ccccc2)C1=O (centres undefined)" system_under_test="Plasmodium berghei" quantity=INHIBITION units_text=% result_value=15.2
compound=O=C(c1sccc1C1CC1)N1CCCN(Cc2cscn2)CC1 system_under_test="Plasmodium berghei" quantity=INHIBITION units_text=% result_value=-4.16
compound=Cc1ccc(CN(CCCN2CCOCC2)Cc2cnn(C)c2)o1 system_under_test="Plasmodium berghei" quantity=INHIBITION units_text=% result_value=30.15
compound=COc1ccc(N(C)Cc2nc3c(cnn3C)c(=O)[nH]2)cc1OC system_under_test="Plasmodium berghei" quantity=INHIBITION units_text=% result_value=35.9
compound="O=S(=O)(N1CCOCC1)N1CCCCC1CCn1cccn1 (centres undefined)" system_under_test="Plasmodium berghei" quantity=INHIBITION units_text=% result_value=-84.5

Answer with reported INHIBITION of O=C([C@H]1CCS(=O)(=O)[C@@H]2CN(Cc3ccc(F)cc3)C[C@H]12)N1CCCC1 12.7

Annotate the compound CCOCCN1CCN(CC(O)c2ccc(OC)cc2)CC1 (centres undefined) with its measured INHIBITION. -9.39

Output measured INHIBITION for this item: CC(C)CN1CCCC(c2nc(O)c3cc(F)ccc3n2)C1 (centres undefined) 20.1

Please supply the value of reported INHIBITION for the item CN1CSC[C@H]1C(=O)N1CCC(CCc2ccccc2)CC1 -29

For Cc1ccccc1C1CCN(CCn2cc(-c3nccs3)nn2)C1 (centres undefined) , write its INHIBITION. 4.15

State its INHIBITION: CCC(=O)N1CCCC1C(=O)N1CCC(Cc2ccc(F)cc2)CC1 (centres undefined) 49.4

Return value of INHIBITION for input OC(CN1CCCCCCC1)c1ccc(OC(F)(F)F)cc1 (centres undefined) , no commentary. 19.2

Provide INHIBITION value for the following compound: CC(C)=CCCC(C)CN1CCC(n2cc(C(=O)NCCO)nn2)CC1 (centres undefined) 60.9

Fill in INHIBITION for record NCc1cccc(-c2cccnc2C(=O)NCCN2CCCC2)c1 -8.58

Note INHIBITION for the compound shown: CCn1cc(CN2CCN(CC(O)c3cc(C)ccc3C)CC2)c(C)n1 (centres undefined) 43.6

Assign INHIBITION to the following record: COc1ccccc1C(=O)N1CC(=O)N(Cc2ccco2)CC(O)C1 (centres undefined) 26.8

Tell us which INHIBITION value is on record for Cc1nc(C(=O)N2CCCC2c2noc(C)n2)c[nH]1 (centres undefined) 0.914

Output measured INHIBITION for this item: Cc1ccc(C(=O)N2CCc3c(CNS(C)(=O)=O)cncc3C2)o1 -3.83

Determine its reported INHIBITION: CN1C[C@@H](N)C[C@H]1C(=O)N1CCC(Cc2ccc(F)cc2)CC1 58.1

Input NC(=O)C1CCN(C(=O)NCCNc2ccccn2)CC1 , output reported INHIBITION. 21.9

Identify measured INHIBITION corresponding to Cc1ccccc1C1CCN(CCn2cc(-c3nccn3C)nn2)C1 (centres undefined) 28

For the compound CC(C)(C)C(=O)N1CCC(COCc2ccccc2)C1 (centres undefined) , give its reported INHIBITION. 11.9

Give a short answer stating reported INHIBITION for COc1cccc(N2CCN(CC(O)c3cc(C)sc3C)CC2)c1 (centres undefined) . 63.1

Read off the recorded INHIBITION for Cc1ccnc(OC[C@]23COC[C@H]2CN(C(=O)c2ccnn2C)C3)n1 43.1

----------
test system: Plasmodium berghei; test: Screen against P. berghei liver stage (PbLuc), transformed with Luciferase, at 10uM; assay type: functional, HepG2; settings: tested at 10 uM
Among all 69,000 compounds or so, about 8,600 (12%) showed an effect of 50% or more. Many of the other results were omitted from the sample, so strong results are more common in it than they were.
Classification field. Basis: INHIBITION. Definitions: low class (below 10%), middle class (10% to below 40%), high class (40% or more)

Some entries whose results are on file:
compound=O=C(NCc1cn2c(n1)CN(Cc1ccncc1)CC2)C1CCC1 assigned_category="high class"
compound=COCc1ncn2c1CN(C(=O)c1cnc3ccccc3c1)CC2 assigned_category="middle class"
compound=CN(CCCc1n[nH]c(N)c1C#N)C(=O)Nc1cc(Cl)cc(Cl)c1 assigned_category="high class"

Band of OC(COCc1ccc(Cl)cc1)CN1CC(n2cccn2)C1 (stereo unspecified) ? low class

Assign a bin to CCc1ccc(CN2CC[C@@H]3CN(S(C)(=O)=O)CCO[C@@H]3C2)o1 high class

Please classify: O=C(Nc1ccc2c(c1)C(=O)NC2)c1ccc(S(=O)(=O)C(F)(F)F)cc1 high class

Sort O=C1C[C@@H]2CC[C@H](CN1)N2C(=O)CCc1ccccc1 into one of the categories. middle class

Which bin should I file CNS(=O)(=O)c1ccc(C(=O)Nc2ccc3c(c2)C(=O)NC3)cc1 under? low class

Hi, small favor: classify COc1cccc(COCC(O)CN2CC(n3cccn3)C2)c1 (stereo unspecified) by its INHIBITION when you get a moment. high class

Bin? Cc1ccccc1C(=O)N1CCC(n2nnc3cc(F)ccc32)CC1 low class

----------
tested on: Plasmodium berghei; experiment: Screen against P. berghei liver stage (PbLuc), transformed with Luciferase, at 10uM; assay type: functional, HepG2; conditions: tested at 10 uM
Out of some 69,000 compounds screened, about 8,600 (12%) showed an effect of 50% or more. Many of the other results were omitted from the sample, so strong results are more common in it than they were.
quantity: INHIBITION (%)
Numeric only. Scale: %

compound="Cc1cccc(NC2CCc3c2[nH]c(=O)n(C2CCCCC2)c3=O)c1C (centres undefined)" system_under_test="Plasmodium berghei" quantity=INHIBITION units_text=% result_value=84

Fill in reported INHIBITION for this entry: Cc1ncoc1C(=O)N1CCCC(c2ccc3c(N)nn(C)c3n2)C1 (centres undefined) 5.2

Give INHIBITION for Cc1ccc(O)c(C(=O)N2CCCC(NC(=O)C(C)C)C2)c1 (centres undefined) 5.9

Tell me INHIBITION reported for c1cncc(-c2nnn3c2COCC(CNCC2CCOCC2)C3)c1 (centres undefined) 41.6

Please give measured INHIBITION of the following entry: Cc1cccc(CN2CCC3(CCCN(C(=O)N4CCCC4)C3)C2=O)n1 (centres undefined) -29.3

Tell me INHIBITION reported for O=C(c1ccc2c(c1)[nH]c(=O)n2C1CCCC1)N1CC(O)C1 44.3

Note down INHIBITION recorded for O=c1[nH]c2ncccc2n1C1CCCCC1 1.41

Supply reported INHIBITION belonging to this compound: COc1ccc(NC(=O)N2CCCCC2c2ncc[nH]2)cc1 (centres undefined) 11.2

----------
Below: a set of entries, each annotated with reported INHIBITION.
test system: Plasmodium berghei; experiment: Screen against P. berghei liver stage (PbLuc), transformed with Luciferase, at 10uM; format: functional, HepG2; details: tested at 10 uM
Hit rate of the full screen: of about 69,000 compounds, about 8,600 (12%) showed an effect of 50% or more. The list comes from a sample in which strong results are over-represented; it also holds close analogues and randomly drawn compounds.
Please reply with the bare figure in % and do not write the unit itself.

smiles_entry=Cc1cc(F)cc(S(=O)(=O)NCCCN2CCC(O)CC2)c1 system_under_test="Plasmodium berghei" result_value=25.1

Check the records and state INHIBITION for CC(C)c1cccc(S(=O)(=O)NCCCN2CCC(O)CC2)c1 62.3

Give the reported INHIBITION for this molecule. CN(C)CCN1CC2(CCC1=O)CCN(C(=O)c1ccn(C)n1)CC2 35.1

Give the reported INHIBITION for this molecule. Cc1ccc(N2CC[C@@H]3[C@@H]2CCN3C(=O)Cc2cccs2)nn1 31.2

Give reported INHIBITION value for Cc1cc(F)c(S(=O)(=O)NCCCN2CCC(O)CC2)cc1F -1.53

Find the measured INHIBITION of CSCc1cccc(S(=O)(=O)NCCCN2CCOCC2)c1 and report it. 18.5

----------
This listing pairs compounds with measured INHIBITION.
tested on: Plasmodium berghei; experiment: Screen against P. berghei liver stage (PbLuc), transformed with Luciferase, at 10uM; type: functional, HepG2; details: tested at 10 uM
The whole screen tested about 69,000 compounds, of which about 8,600 (12%) showed an effect of 50% or more. Only a selection was taken, and strong results are over-represented in it overall.
Give the number; % is assumed, so skip it.

Answered cases to consult:
compound=Cc1ccc(N(CCC#N)C(=O)CCc2cccnc2)cc1C result_value=11.9
compound="CCS(=O)(=O)NC1CCc2c(ccc(=O)n2CC2CC2)C1 (centres undefined)" result_value=35.7
compound="CC(C)Oc1ccc(CN2CCCC(N3CCOCC3)C2)cc1CO (centres undefined)" result_value=82.9
compound="COCCn1c2c(ccc1=O)CC(NCc1cccnc1OC)CC2 (centres undefined)" result_value=41.2
compound="CC(C)NC1CCc2c(ccc(=O)n2CC2CC2)C1 (centres undefined)" result_value=47.4

Please report the measured INHIBITION for COc1ncccc1CNC1CCc2c(ccc(=O)n2C)C1 (centres undefined) tested on Plasmodium berghei. 60.2

Fill in: INHIBITION on Plasmodium berghei, entry Cc1ccc(CN2CCC3(CCN(Cc4ccncc4)CC3)CC2)cc1 33

Report the value of INHIBITION obtained on Plasmodium berghei for Cc1ccc(CNS(=O)(=O)CCCC#N)cc1F . 58.1

For Plasmodium berghei, give the measured INHIBITION of the entry Cc1cc(C)c2nc(C)cc(C(=O)N3CC(O)CO3)c2c1 (centres undefined) 22.6
